- tgt: UniProt:P43116
- procedure_summary: cAMP assay, hEP2
- Format: cell-based
pEC50: −log10 of the molar value.
Categories are assigned from the measured pEC50 using these intervals: LOW: < 7; MEDIUM: ≥ 7 and < 8; HIGH: ≥ 8

compound	label_class
O=C(O)CCC/C=C\C[C@@H]1[C@@H](COc2ccc(CO)cc2)[C@H](O)C[C@H]1Cl	HIGH
O=C(O)CCC/C=C\C[C@@H]1[C@@H](COc2ccc3ccccc3c2)[C@H](O)C[C@H]1Cl	MEDIUM
O=C(O)CCC/C=C\C[C@@H]1[C@@H](COc2ccccc2CO)[C@H](O)C[C@H]1Cl	LOW
Cc1cccc(C)c1OC[C@@H]1[C@@H](C/C=C\CCCC(=O)O)[C@H](Cl)C[C@H]1O	LOW
CC(C)C(O)c1cccc(OC[C@@H]2[C@@H](C/C=C\CCCC(=O)O)[C@H](Cl)C[C@H]2O)c1 (stereo partly drawn)	MEDIUM
O=Cc1ccc(OC[C@@H]2[C@@H](C/C=C\CCCC(=O)O)[C@H](Cl)C[C@H]2O)cc1	MEDIUM
O=C(O)CCCCCC[C@@H]1[C@@H](COc2cc(C(F)(F)F)cc(C(F)(F)F)c2)[C@H](O)C[C@H]1Cl	MEDIUM
O=C(O)CCC/C=C\C[C@@H]1[C@@H](COc2ccc(Cl)c3ccccc23)[C@H](O)C[C@H]1Cl	HIGH
CC(O)c1cccc(OC[C@@H]2[C@@H](C/C=C\CCCC(=O)O)[C@H](Cl)C[C@H]2O)c1 (stereo partly drawn)	MEDIUM
Cc1cc(OC[C@@H]2[C@@H](C/C=C\CCCC(=O)O)[C@H](Cl)C[C@H]2O)cc(C)c1Cl	HIGH

----------
Documented pEC50 across a set of compounds
- tgt: hEP2 (Homo sapiens, UniProt P43116)
- Sequence (P43116 whole entry): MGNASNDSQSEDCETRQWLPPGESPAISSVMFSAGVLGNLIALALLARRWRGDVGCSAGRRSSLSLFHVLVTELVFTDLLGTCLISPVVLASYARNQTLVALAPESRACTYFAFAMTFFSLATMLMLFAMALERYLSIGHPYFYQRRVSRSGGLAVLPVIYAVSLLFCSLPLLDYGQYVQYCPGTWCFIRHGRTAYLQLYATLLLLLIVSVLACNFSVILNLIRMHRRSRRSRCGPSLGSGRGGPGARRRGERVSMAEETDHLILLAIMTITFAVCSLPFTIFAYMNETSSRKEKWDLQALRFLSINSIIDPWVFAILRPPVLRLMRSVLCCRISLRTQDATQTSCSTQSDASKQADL
- procedure_summary: FLIPR calcium signal, hEP2
- Type: cell-based
- Design: expressed in transfected cells; host or cells: HEK-293(EBNA)
- assay_context: HEK-293(EBNA) cells expressing hEP2/Gqs5
- Description: Methods for FLIPR™ Studies […] Cells were excited with an Argon laser at 488 nm, and emission was measured through a 510-570 nm bandwidth emission filter (FLIPR™, Molecular Devices, Sunnyvale, Calif.). […] The peak increase in fluorescence intensity was recorded for each well. […] The peak fluorescence change in each drug-containing well was then expressed relative to the controls. […]
pEC50: −log10 of the molar value.

compound	pEC50
O=C(O)CCC/C=C\C[C@@H]1[C@@H](COc2cc(Cl)cc(CO)c2)[C@H](O)C[C@H]1Cl	6.28
O=C(O)CCC/C=C\C[C@@H]1[C@@H](COc2ccc(Cl)c3ccccc23)[C@H](O)C[C@H]1Cl	7.54
O=C(O)CCC/C=C\C[C@@H]1[C@@H](COc2cccc(OC(=O)c3ccccc3)c2)[C@H](O)C[C@H]1Cl	5.80
O=C(O)CCCCCC[C@@H]1[C@@H](COc2cc(C(F)(F)F)cc(C(F)(F)F)c2)[C@H](O)C[C@H]1Cl	7.00
O=C(O)CCC/C=C\C[C@@H]1[C@@H](COc2cccc(Cl)c2)[C@H](O)C[C@H]1Cl	7.74
CCCC(OC)c1ccc(OC[C@@H]2[C@@H](C/C=C\CCCC(=O)O)[C@H](Cl)C[C@H]2O)cc1 (stereo partly drawn)	6.18
O=C(O)CCC/C=C\C[C@@H]1[C@@H](COc2cccc3ccccc23)[C@H](O)C[C@H]1Cl	8.52
Cc1ccc(OC[C@@H]2[C@@H](C/C=C\CCCC(=O)O)[C@H](Cl)C[C@H]2O)c(C)c1	6.56
O=C(O)CCC/C=C\C[C@@H]1[C@@H](COc2ccc3ccccc3c2)[C@H](O)C[C@H]1Cl	6.52
CC(O)c1cccc(OC[C@@H]2[C@@H](C/C=C\CCCC(=O)O)[C@H](Cl)C[C@H]2O)c1 (stereo partly drawn)	6.92
O=C(O)CCC/C=C\C[C@@H]1[C@@H](COc2cccc3c2CCCC3O)[C@H](O)C[C@H]1Cl (stereo partly drawn)	7.77
O=C(O)CCC/C=C\C[C@@H]1[C@@H](COc2ccccc2CO)[C@H](O)C[C@H]1Cl	5.02
Cc1cccc(OC[C@@H]2[C@@H](C/C=C\CCCC(=O)O)[C@H](Cl)C[C@H]2O)c1	6.95
CCCC(O)c1cccc(OC[C@@H]2[C@@H](C/C=C\CCCC(=O)O)[C@H](Cl)C[C@H]2O)c1 (stereo partly drawn)	6.63
O=C(O)CCC/C=C\C[C@@H]1[C@@H](COc2ccc(Cl)cc2)[C@H](O)C[C@H]1Cl	7.35
O=C(O)CCC/C=C\C[C@@H]1[C@@H](COc2cccc(CO)c2)[C@H](O)C[C@H]1Cl	6.43
O=C(O)CCC/C=C\C[C@@H]1[C@@H](COc2cccc(C(F)(F)F)c2)[C@H](O)C[C@H]1Cl	7.18
CC(C)(C)c1cccc(OC[C@@H]2[C@@H](C/C=C\CCCC(=O)O)[C@H](Cl)C[C@H]2O)c1	6.72
O=C(O)CCC/C=C\C[C@@H]1[C@@H](COc2cc(C(F)(F)F)cc(C(F)(F)F)c2)[C@H](O)C[C@H]1Cl	7.96
Cc1cc(OC[C@@H]2[C@@H](C/C=C\CCCC(=O)O)[C@H](Cl)C[C@H]2O)cc(C)c1Cl	8.00
CCCCCC(O)c1ccc(OC[C@@H]2[C@@H](C/C=C\CCCC(=O)O)[C@H](Cl)C[C@H]2O)cc1 (stereo partly drawn)	6.27
CC(O)c1ccc(OC[C@@H]2[C@@H](C/C=C\CCCC(=O)O)[C@H](Cl)C[C@H]2O)cc1 (stereo partly drawn)	5.71
Cc1ccc(OC[C@@H]2[C@@H](C/C=C\CCCC(=O)O)[C@H](Cl)C[C@H]2O)cc1C	6.21
Cc1cccc(C)c1OC[C@@H]1[C@@H](C/C=C\CCCC(=O)O)[C@H](Cl)C[C@H]1O	5.25
Cc1ccc(C)c(OC[C@@H]2[C@@H](C/C=C\CCCC(=O)O)[C@H](Cl)C[C@H]2O)c1	7.29
CCCC(O)c1ccc(OC[C@@H]2[C@@H](C/C=C\CCCC(=O)O)[C@H](Cl)C[C@H]2O)cc1 (stereo partly drawn)	5.96
O=C(O)CCC/C=C\C[C@@H]1[C@@H](COc2cccc3c2CCC3=O)[C@H](O)C[C@H]1Cl	7.29
CC(C)C(O)c1cccc(OC[C@@H]2[C@@H](C/C=C\CCCC(=O)O)[C@H](Cl)C[C@H]2O)c1 (stereo partly drawn)	6.71
O=C(O)CCCCCC[C@@H]1[C@@H](COc2cccc3ccccc23)[C@H](O)C[C@H]1Cl	7.09
